Values were extracted from PubChem BioAssay (NCI).

test system: HCT-15 colon; assay: NCI-60 one-dose screen, 48 h (100 = growth as untreated, 0 = no growth, -100 = all killed); conditions: 10 µM unless noted
About 83,000 compounds went through this panel and 20% of them were active in at least one assay; those are over-represented in the sample as a whole.
Measured Property: growth (%)

INSERT INTO results (compound, measured_property, unit_tag, test_value) VALUES
  ('Cc1nc2ccc(Nc3nc(Cl)nc(N4CCOCC4)n3)cc2n1Cc1ccccc1', 'growth', '%', 76.9),
  ('O=c1[nH]c2ccccc2n2cc3cccnc3c12', 'growth', '%', 70.2),
  ('C#CC[C@@H]1C[C@]2(C)[C@H]3CC=C4[C@H]5CC(C)(C)CC[C@]5(C(=O)NCCCCN)CC[C@@]4(C)[C@]3(C)CC[C@H]2C(C)(C)[C@H]1OC(C)=O', 'growth', '%', 8.51),
  ('COc1cc2nccc(Oc3ccc(NC(=O)C4(C(=O)Nc5ccc(F)cc5)CC4)cc3)c2cc1OC(=O)c1ccc(N)cc1', 'growth', '%', 25.9),
  ('COc1ccc(NC(=O)C2c3ccccc3C(=O)N(CC(C)C)C2c2cccs2)cc1 (stereo not drawn)', 'growth', '%', 98.9),
  ('COc1ccc2[nH]c(O)c(/C=c3/ccc4c(c3)N=C(c3ccc(C(F)(F)F)cc3)N=4)c2c1', 'growth', '%', 53.9),
  ('CCNC(=S)N(Cc1ccccc1)Cc1ccccc1', 'growth', '%', 111),
  ('CCC(=O)NC(O)C(Cl)(Cl)C(C)Cl (stereo not drawn)', 'growth', '%', 95.6),
  ('CCN(C)CCCOc1ccc(/C(=C(\C)Cc2cccc(OC)c2)c2ccc(OC(C)=O)cc2)cc1', 'growth', '%', 101),
  ('O=S(=O)(NCC[C@@H]1C[C@H]1c1ccc2ccccc2c1)c1ccc(C(F)(F)F)cc1', 'growth', '%', 93.4),
  ('Cc1ccc(-c2cnc3sc4ccc(Cl)cc4n23)cc1', 'growth', '%', 100),
  ('Oc1[nH]c2ccccc2c1/C=c1/ccc2c(c1)N=C(c1ccc(C(F)(F)F)cc1)N=2', 'growth', '%', 44.5),
  ('CN(C)c1ccc(Nc2c3ccccc3nc3ccccc23)cc1', 'growth', '%', 6.89),
  ('COc1ccc(-c2cnc3ccnn3c2-c2cc(OC)c(OC)c(OC)c2)cc1', 'growth', '%', 27.8),
  ('Oc1c(-c2cc(C(F)(F)F)[nH]n2)cc(Cl)c(OCc2ccc(Cl)cc2)c1-c1ccc(Cl)c(C(F)(F)F)c1', 'growth', '%', -11.5),
  ('CCOC(=O)C(Nc1ccccc1)C(=O)OCC', 'growth', '%', 98.9),
  ('Cc1ccc(N2C3c4ccccc4N(S(=O)(=O)c4ccc(C)cc4)C2c2ccccc2N3S(=O)(=O)c2ccc(C)cc2)cc1', 'growth', '%', 94.9),
  ('COc1ccc(C2=CC(c3ccc(OC)cc3Br)N3C=CSC3=N2)cc1 (stereo not drawn)', 'growth', '%', 27.5),
  ('CC(C)CC(NC(=O)OCC1c2ccccc2-c2ccccc21)C(=O)O (stereo not drawn)', 'growth', '%', 105),
  ('C#CC[C@@H]1C[C@]2(C)[C@H]3CC[C@@H]4[C@H]5C(C(=C)C)CC[C@]5(C(=O)NCCCN5CCN(CCCN)CC5)CC[C@@]4(C)[C@]3(C)CC[C@H]2C(C)(C)[C@H]1OC(C)=O (stereo partly drawn)', 'growth', '%', -50.4),
  ('Cc1[nH]n(C(=O)c2ccncc2)c(=O)c1N=Nc1ccc(O)c(C(=O)O)c1', 'growth', '%', 112),
  ('O=[N+]([O-])c1ccccc1CN1CCCCC1', 'growth', '%', 107),
  ('Oc1ccc(CCCCCCc2ccc(O)cc2)cc1', 'growth', '%', 74.5);
